The reported measurements were obtained from patent US11617726B2.

Record form. Attribute: Inhibition zone. Fill in for each entry.
system: Acinetobacter baumannii isolates; assay: Antimicrobial susceptibility test, disc diffusion method (CLSI M100-S24); type: cell-based; details: isolate AB18; disc diffusion
Could you give me the number in mm? Just the number is fine.

Item CCN1CCN(C(=O)N[C@@H](C(=O)N[C@@H]2C(=O)N3[C@@H]2SC(C)(C)[C@@H]3C(=O)O)c2ccccc2)C(=O)C1=O has what recorded Inhibition zone?
8

Item NC[C@@H]1O[C@H](O[C@H]2[C@@H](O)[C@H](O[C@@H]3[C@@H](O)[C@H](N)C[C@H](N)[C@H]3O[C@H]3O[C@H](CN)[C@@H](O)[C@H](O)[C@H]3N)O[C@@H]2CO)[C@H](N)[C@@H](O)[C@@H]1O has what recorded Inhibition zone?
15

====

System: Acinetobacter baumannii isolates
Assay: Antimicrobial susceptibility test, disc diffusion method (CLSI M100-S24)
Format: cell-based
Details: isolate AB17; disc diffusion
Method: A total of 33 non-duplicate, non-consecutive clinical isolates of Multi-Drug Resistant (MDR) Acinetobacter baumannii were collected from burn wards (“AB1-AB33”). […] The inoculum suspension was prepared by selecting three to five morphologically similar colonies from overnight growth (16-24 h of incubation) on blood agar medium. […] The suspension density was measured using a UV spectrophotometer calibrated with a 0.5 McFarland standard. […]
Record form. Attribute: Inhibition zone. Fill in for each entry.
Could you give me the number in mm? Just the number is fine.

Enter reported Inhibition zone observed with Acinetobacter baumannii isolates for CCN1CCN(C(=O)N[C@@H](C(=O)N[C@@H]2C(=O)N3[C@@H]2SC(C)(C)[C@@H]3C(=O)O)c2ccccc2)C(=O)C1=O
15

Enter reported Inhibition zone observed with Acinetobacter baumannii isolates for CO/N=C(\C(=O)N[C@@H]1C(=O)N2C(C(=O)[O-])=C(C[N+]3(C)CCCC3)CS[C@H]12)c1csc(N)n1 [FEP, Cefepime]
11

Enter reported Inhibition zone observed with Acinetobacter baumannii isolates for CC(C)(O/N=C(\C(=O)N[C@@H]1C(=O)N2C(C(=O)[O-])=C(C[n+]3ccccc3)CS[C@H]12)c1csc(N)n1)C(=O)O
12

Enter reported Inhibition zone observed with Acinetobacter baumannii isolates for CN(C)[C@@H]1C(O)=C(C(N)=O)C(=O)[C@@]2(O)C(O)=C3C(=O)c4c(O)cccc4[C@@](C)(O)[C@H]3C[C@@H]12
21

====

test system: Acinetobacter baumannii isolates; experiment: Antimicrobial susceptibility test, disc diffusion method (CLSI M100-S24); assay type: cell-based; parameters: key: “NZ” indicated that no zone of inhibition was observed; settings: isolate AB10; disc diffusion
measure: Inhibition zone

CO[C@@]1(NC(=O)Cc2cccs2)C(=O)N2C(C(=O)O)=C(COC(N)=O)CS[C@@H]21 [FOX, Cefoxitin]
NZ
NC[C@@H]1O[C@H](O[C@H]2[C@@H](O)[C@H](O[C@@H]3[C@@H](O)[C@H](N)C[C@H](N)[C@H]3O[C@H]3O[C@H](CN)[C@@H](O)[C@H](O)[C@H]3N)O[C@@H]2CO)[C@H](N)[C@@H](O)[C@@H]1O [NEO, Neomycin]
NZ
C[C@H]1[C@H](NC(=O)/C(=N\OC(C)(C)C(=O)O)c2csc(N)n2)C(=O)N1S(=O)(=O)O [ATM, Aztreonam]
13 mm
NCC[C@H](O)C(=O)N[C@@H]1C[C@H](N)[C@@H](O[C@H]2O[C@H](CN)[C@@H](O)[C@H](O)[C@H]2O)[C@H](O)[C@H]1O[C@H]1O[C@H](CO)[C@@H](O)[C@H](N)[C@H]1O [AK, Amikacin]
NZ

Next compound, please.
Item CO/N=C(\C(=O)N[C@@H]1C(=O)N2C(C(=O)[O-])=C(C[N+]3(C)CCCC3)CS[C@H]12)c1csc(N)n1 [FEP, Cefepime] has what recorded Inhibition zone?
7 mm
